Some molecules, each annotated with its measured recovery at 1 h, 10 µM.
assay: Apparent permeability of the compound across apical to basolateral side in MDCK-MDR1 cells assessed as compound recovery at 10 uM incubated for 1 hr by RF-MS analysis; assay type: ADME, cell-based, Canis lupus familiaris; settings: dog, read-out: Activity
readout.label: recovery at 1 h, 10 µM

# molecule, result
records = [
    ("C[C@H]1[C@H](C)CC[C@]2(C(=O)O)CC[C@]3(C)C(=CC[C@@H]4[C@@]5(C)CC6=C(C7C(=O)N(c8ccccc8)C(=O)C7C=C6C(F)(F)F)C(C)(C)[C@@H]5CC[C@]43C)[C@H]12 (stereo partly specified)", "60.5%"),
    ("C=C(C)[C@@H]1CC[C@]2(C(=O)O)CC[C@]3(C)[C@H](CC[C@@H]4[C@@]5(C)Cc6c(C(F)(F)F)cc(C(=O)OC)c(C(=O)OC)c6C(C)(C)[C@@H]5CC[C@]43C)[C@@H]12", "71.2%"),
    ("C=C(C)[C@@H]1CC[C@]2(C(=O)O)CC[C@]3(C)[C@H](CC[C@@H]4[C@@]5(C)CC6=C(C7C(=O)N(c8ccccc8)C(=O)C7C=C6C(F)(F)F)C(C)(C)[C@@H]5CC[C@]43C)[C@@H]12 (stereo partly specified)", "94.1%"),
    ("CC(C)[C@@H]1CC[C@]2(C(=O)O)CC[C@]3(C)[C@H](CC[C@@H]4[C@@]5(C)CC6=C(C7C(=O)N(c8ccccc8)C(=O)C7C=C6C(F)(F)F)C(C)(C)[C@@H]5CC[C@]43C)[C@@H]12 (stereo partly specified)", "86%"),
    ("C=C(C)[C@@H]1CC[C@]2(C(=O)O)CC[C@]3(C)[C@H](CC[C@@H]4[C@@]5(C)Cc6c(C(F)(F)F)cc(=O)oc6C(C)(C)[C@@H]5CC[C@]43C)[C@@H]12", "70.7%"),
    ("CC(C)[C@@H]1CC[C@]2(C(=O)O)CC[C@]3(C)[C@H](CC[C@@H]4[C@@]5(C)Cc6c(C(F)(F)F)cc(=O)oc6C(C)(C)[C@@H]5CC[C@]43C)[C@@H]12", "64.8%"),
]

###

system: K562; assay: Cytotoxicity against human K562 cells assessed as reduction in cell viability incubated for 72 hrs by MTS assay; format: functional, cell-based; conditions: K562, 72 h
pIC50: −log10 of the molar value.

# compound, target.desc, pIC50
rows = [
    ("COC(=O)c1cc(C(F)(F)F)c2c(c1C(=O)OC)C(C)(C)[C@@H]1CC[C@]3(C)[C@H](CC=C4[C@@H]5[C@@H](C)[C@H](C)CC[C@]5(C(=O)O)CC[C@]43C)[C@@]1(C)C2", "K562", 4.55),
    ("CC(C)[C@@H]1CC[C@]2(C(=O)O)CC[C@]3(C)[C@H](CC[C@@H]4[C@@]5(C)CC6=C(C7C(=O)N(c8ccccc8)C(=O)C7C=C6C(F)(F)F)C(C)(C)[C@@H]5CC[C@]43C)[C@@H]12 (stereo not given in full)", "K562", 4.52),
    ("C=C(C)[C@@H]1CC[C@]2(C(=O)O)CC[C@]3(C)[C@H](CC[C@@H]4[C@@]5(C)CC6=C(C7C(=O)N(c8ccccc8)C(=O)C7C=C6C(F)(F)F)C(C)(C)[C@@H]5CC[C@]43C)[C@@H]12 (stereo not given in full)", "K562", 4.60),
    ("CC(C)[C@@H]1CC[C@]2(C(=O)O)CC[C@]3(C)[C@H](CC[C@@H]4[C@@]5(C)Cc6c(C(F)(F)F)cc(=O)oc6C(C)(C)[C@@H]5CC[C@]43C)[C@@H]12", "K562", 4.64),
    ("C=C(C)[C@@H]1CC[C@]2(C(=O)O)CC[C@]3(C)[C@H](CC[C@@H]4[C@@]5(C)CC(C(=O)C(F)(F)F)C(=O)C(C)(C)[C@@H]5CC[C@]43C)[C@@H]12 (stereo not given in full)", "K562", 4.89),
]

###

Some compounds, each annotated with its measured remaining at 0.5 h.
assay: Stability in human plasma assessed as compound remaining measured 30 mins by RF-MS analysis; type: ADME, cell-free; conditions: read-out: Stability

# compound, u, remaining at 0.5 h
data = [
    ("C=C(C)[C@@H]1CC[C@]2(C(=O)O)CC[C@]3(C)[C@H](CC[C@@H]4[C@@]5(C)Cc6c(C(F)(F)F)cc(=O)oc6C(C)(C)[C@@H]5CC[C@]43C)[C@@H]12", "%", 99.2),
    ("C[C@H]1[C@H](C)CC[C@]2(C(=O)O)CC[C@]3(C)C(=CC[C@@H]4[C@@]5(C)CC6=C(C7C(=O)N(c8ccccc8)C(=O)C7C=C6C(F)(F)F)C(C)(C)[C@@H]5CC[C@]43C)[C@H]12 (stereo partly specified)", "%", 99.6),
    ("C=C(C)[C@@H]1CC[C@]2(C(=O)O)CC[C@]3(C)[C@H](CC[C@@H]4[C@@]5(C)CC6=C(C7C(=O)N(c8ccccc8)C(=O)C7C=C6C(F)(F)F)C(C)(C)[C@@H]5CC[C@]43C)[C@@H]12 (stereo partly specified)", "%", 92.7),
    ("CC(C)[C@@H]1CC[C@]2(C(=O)O)CC[C@]3(C)[C@H](CC[C@@H]4[C@@]5(C)CC6=C(C7C(=O)N(c8ccccc8)C(=O)C7C=C6C(F)(F)F)C(C)(C)[C@@H]5CC[C@]43C)[C@@H]12 (stereo partly specified)", "%", 102),
    ("C=C(C)[C@@H]1CC[C@]2(C(=O)O)CC[C@]3(C)[C@H](CC[C@@H]4[C@@]5(C)Cc6c(C(F)(F)F)cc(C(=O)OC)c(C(=O)OC)c6C(C)(C)[C@@H]5CC[C@]43C)[C@@H]12", "%", 96.7),
    ("CC(C)[C@@H]1CC[C@]2(C(=O)O)CC[C@]3(C)[C@H](CC[C@@H]4[C@@]5(C)Cc6c(C(F)(F)F)cc(=O)oc6C(C)(C)[C@@H]5CC[C@]43C)[C@@H]12", "%", 97.7),
]

###

test: Stability in human plasma assessed as compound remaining measured 15 mins by RF-MS analysis; format: ADME, cell-free; settings: read-out: Stability
readout.label: remaining at 0.25 h (%)

# compound, readout.label, number
records = [
    ("CC(C)[C@@H]1CC[C@]2(C(=O)O)CC[C@]3(C)[C@H](CC[C@@H]4[C@@]5(C)Cc6c(C(F)(F)F)cc(=O)oc6C(C)(C)[C@@H]5CC[C@]43C)[C@@H]12", "remaining at 0.25 h", 98.4),
    ("C=C(C)[C@@H]1CC[C@]2(C(=O)O)CC[C@]3(C)[C@H](CC[C@@H]4[C@@]5(C)Cc6c(C(F)(F)F)cc(=O)oc6C(C)(C)[C@@H]5CC[C@]43C)[C@@H]12", "remaining at 0.25 h", 99.9),
    ("C=C(C)[C@@H]1CC[C@]2(C(=O)O)CC[C@]3(C)[C@H](CC[C@@H]4[C@@]5(C)Cc6c(C(F)(F)F)cc(C(=O)OC)c(C(=O)OC)c6C(C)(C)[C@@H]5CC[C@]43C)[C@@H]12", "remaining at 0.25 h", 103),
    ("CC(C)[C@@H]1CC[C@]2(C(=O)O)CC[C@]3(C)[C@H](CC[C@@H]4[C@@]5(C)CC6=C(C7C(=O)N(c8ccccc8)C(=O)C7C=C6C(F)(F)F)C(C)(C)[C@@H]5CC[C@]43C)[C@@H]12 (stereo partly specified)", "remaining at 0.25 h", 99.2),
    ("C=C(C)[C@@H]1CC[C@]2(C(=O)O)CC[C@]3(C)[C@H](CC[C@@H]4[C@@]5(C)CC6=C(C7C(=O)N(c8ccccc8)C(=O)C7C=C6C(F)(F)F)C(C)(C)[C@@H]5CC[C@]43C)[C@@H]12 (stereo partly specified)", "remaining at 0.25 h", 100),
    ("C[C@H]1[C@H](C)CC[C@]2(C(=O)O)CC[C@]3(C)C(=CC[C@@H]4[C@@]5(C)CC6=C(C7C(=O)N(c8ccccc8)C(=O)C7C=C6C(F)(F)F)C(C)(C)[C@@H]5CC[C@]43C)[C@H]12 (stereo partly specified)", "remaining at 0.25 h", 102),
]

###

system: K562; assay: Cytotoxicity against human K562 cells assessed as reduction in cell viability incubated for 72 hrs by MTS assay; type: functional, cell-based; details: K562, 72 h
pIC50: −log10 of the molar value.

# compound, target.desc, readout.relation, pIC50
data = [
    ("C[C@H]1[C@H](C)CC[C@]2(C(=O)O)CC[C@]3(C)C(=CC[C@@H]4[C@@]5(C)CC6=C(C7C(=O)N(c8ccccc8)C(=O)C7C=C6C(F)(F)F)C(C)(C)[C@@H]5CC[C@]43C)[C@H]12 (stereo not given in full)", "K562", "=", 4.68),
    ("C=C(C)[C@@H]1CC[C@]2(C(=O)O)CC[C@]3(C)[C@H](CC[C@@H]4[C@@]5(C)Cc6c(C(F)(F)F)cc7c(c6C(C)(C)[C@@H]5CC[C@]43C)C(=O)N(c3ccccc3)C7=O)[C@@H]12", "K562", "<", 4.30),
    ("COC(=O)c1cc(C(F)(F)F)c2c(c1C(=O)OC)C(C)(C)[C@@H]1CC[C@]3(C)[C@H](CC[C@@H]4[C@H]5[C@H](C(C)C)CC[C@]5(C(=O)O)CC[C@]43C)[C@@]1(C)C2", "K562", "<", 4.30),
    ("C[C@H]1[C@H](C)CC[C@]2(C(=O)O)CC[C@]3(C)C(=CC[C@@H]4[C@@]5(C)Cc6c(C(F)(F)F)cc7c(c6C(C)(C)[C@@H]5CC[C@]43C)C(=O)N(c3ccccc3)C7=O)[C@H]12", "K562", "<", 4.30),
    ("C[C@H]1[C@H](C)CC[C@]2(C(=O)O)CC[C@]3(C)C(=CC[C@@H]4[C@@]5(C)CC(C(=O)C(F)(F)F)C(=O)C(C)(C)[C@@H]5CC[C@]43C)[C@H]12 (stereo not given in full)", "K562", "=", 4.64),
]
